biological target: T1, human LILRB1 recombinant protein (human, UniProt Q8NHL6 24-461); assay: ELISA, B cell supernatant
T1 construct: The ELISA method says only 'LILRB1 recombinant proteins' coated on plates; also called leukocyte immunoglobulin-like receptor subfamily B member 1
T1 sequence (Q8NHL6 24-461 limits assumed): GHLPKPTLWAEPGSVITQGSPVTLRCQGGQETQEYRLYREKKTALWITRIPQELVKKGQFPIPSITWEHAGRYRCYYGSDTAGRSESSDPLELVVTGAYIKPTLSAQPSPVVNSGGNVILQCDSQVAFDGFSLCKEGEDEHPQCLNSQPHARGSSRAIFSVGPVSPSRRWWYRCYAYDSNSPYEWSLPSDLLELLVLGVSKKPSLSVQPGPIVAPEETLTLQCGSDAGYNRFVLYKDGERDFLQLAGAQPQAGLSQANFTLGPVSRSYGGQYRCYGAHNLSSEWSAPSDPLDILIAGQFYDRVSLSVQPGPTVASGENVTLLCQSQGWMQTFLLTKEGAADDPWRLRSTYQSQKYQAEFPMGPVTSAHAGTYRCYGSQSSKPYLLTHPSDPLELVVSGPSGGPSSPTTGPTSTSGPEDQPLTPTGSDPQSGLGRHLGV
Please go through the items and note down their OD450.
State the answer as a number, implicitly in OD450.

Request: Reported OD450, binder mAb of B cell clone 25 (supernatant) (antibody, V domains shown, rabbit; also called B1-#25) VH: EQSVKESGGGLVQPEGSLTLTCKVSGIDFNYYNYYYMCWVRQAPGKGLEWIGCMSTASANIYLASWAKGRFTISEASSTTVTLQMTSLTAADTATYFCAKSHGGDGGYGVVLWGPGTLVTISS VL: ELDLTQTPFSVSAAVGGTVTIKCQASETISNRLAWYQQKPGQPPKLLIYSASTLESGVPSRFKGSGSGTEFTLTISDLECADAATYYCQSIRSSSGIVHPNTFGGGTEVEIK : ____
Response: 2.3

Request: Tell me the measured OD450 of mAb of B cell clone 221 (supernatant) (antibody, V domains shown, rabbit) VH: QSLEESGGDLVKPGASLTLTCTASGFSFSSSYYMCWVRQAPGKGLEWIACIYGGSTGTTYYASWAKGRFTISKTSSTTVTLQMTSLTGADTATYFCARSYNSASSGYYWDLWGPGTLVTVSS VL: ELDLTQTPSSVEAAVGGTVTIKCQASQSIGSNLAWYQQKPGQPPKVLIYKASTLASGVPSRFKGSGSGTQFTLTISDLECADAATYYCQNNNYWSNGNHFGGGTEVVVK , please.
Response: 1.64

Request: I would be grateful if you could share the reported OD450 for mAb of B cell clone 226 (supernatant) (antibody, V domains shown, rabbit) VH: QEQLVESGGGLVQPEGSLTLTCTASGFSFSSRQYISWVRRAPGKGLEWIGAIVTVNNKVHYANWAKGRFTISEASSTTVTLQMTSLTAADTATYFCARWRTFGLWGPGTLVTVSS VL: ELVLTQTPSSKSVAVGDTVTINCQASENVYSNNYTSWFQQKPGQPPKQLLYYAAYRASGVPSRFKGSGSGTEFTLSISDVVCDDAATYYCSGHKDYSDDGSTFGGGTEVVVK .
Response: 2.38
